- System: NCI-H460 (human non-small cell lung cancer cell line)
- procedure text: In vitro cell growth inhibition test against NCI-H460
- Assay type: cell-based
- condition context: 72 h, NCI-H460 cells, 3 days culture, WST-8 (Cell Counting Kit-8), 50% growth inhibition concentration
readout kind: IC50 (nM)
Express your answer in nM, writing the number without its unit.

# IC50 lookup, item CCCn1nc(NC(=O)C2CN(c3nc4c(c(C)c3F)c(=O)c(C(=O)O)cn4-c3ncns3)C2)cc1C
260

Entry to check: CCOCCNC(=O)C1CN(c2cc(C)c3c(=O)c(C(=O)O)cn(-c4nc(-c5cccnc5)cs4)c3n2)C1
400

Entry to check: Cc1ccc(C(=O)NC2CN(c3nc4c(cc3F)c(=O)c(C(=O)O)cn4-c3nccs3)C2)nc1
410

Entry to check: Cc1cc(N2CC(c3ccon3)C2)nc2c1c(=O)c(C(=O)O)cn2-c1ncns1
200

Entry to check: CCOCC(COCC)NC(=O)C1CN(c2cc(C)c3c(=O)c(C(=O)O)cn(-c4nccs4)c3n2)C1
110

Entry to check: CNC1CN(c2ccc3c(=O)c(C(=O)O)cn(-c4nccs4)c3n2)CC1OC (stereo not shown) [Compound A, reference compound]
370

Entry to check: O=C(O)c1cn(-c2nccs2)c2nc(N3CC(CNc4ccccn4)C3)c(F)cc2c1=O
900

Entry to check: CNOC1CN(c2cc(C)c3c(=O)c(C(=O)O)cn(-c4ncns4)c3n2)C1
380

Entry to check: O=C(O)c1cn(-c2nccs2)c2nc(N3CC(C(=O)Nc4ccccn4)C3)c(F)cc2c1=O
190

Entry to check: Cc1ccc(C(=O)NC2CN(c3cc(C)c4c(=O)c(C(=O)O)cn(-c5ncns5)c4n3)C2)nc1
210

* * *

- Test system: NCI-H460 (human non-small cell lung cancer cell line)
- procedure text: In vitro cell growth inhibition test against NCI-H460
- Format: cell-based
- condition context: 72 h, NCI-H460 cells, 3 days culture, WST-8 (Cell Counting Kit-8), 50% growth inhibition concentration
# note: exactly 300 nM is not below, so it is FALSE; use TRUE for IC50 strictly under it

Just wondering, is IC50 of Cc1cnc(C2CN(c3cc(C)c4c(=O)c(C(=O)O)cn(-c5ncns5)c4n3)C2)o1 [Example 489] below 300 nM?
TRUE

Entry to check: O=C(O)c1cn(-c2nccs2)c2nc(N3CC(C(=O)NCC4CCCCO4)C3)c(F)cc2c1=O (centres unmarked) [Example 173]
TRUE

Entry to check: O=C(O)c1cn(-c2ncns2)c2nc(N3CC(NOCc4ccccc4)C3)c(F)cc2c1=O [Example 549]
TRUE

Entry to check: CC(=O)C1CN(c2cc(C)c3c(=O)c(C(=O)O)cn(-c4nccs4)c3n2)C1 [Example 020]
FALSE

Entry to check: CCONC1CN(c2cc(C)c3c(=O)c(C(=O)O)cn(-c4ncns4)c3n2)C1 [Example 541]
FALSE

Entry to check: Cc1cc(N2CC(C(=O)NCC3CCCCO3)C2)nc2c1c(=O)c(C(=O)O)cn2-c1nccs1 (centres unmarked) [Example 078]
TRUE

Entry to check: COCC(COC)NC(=O)C1CN(c2cc(C)c3c(=O)c(C(=O)O)cn(-c4nccs4)c3n2)C1 [Example 243]
TRUE

Entry to check: Cc1c(F)c(N2CC(n3cccn3)C2)nc2c1c(=O)c(C(=O)O)cn2-c1nccs1 [Example 487]
TRUE
